Reference for the values: PubChem BioAssay (NCI)

- Test system: MDA-MB-435 melanoma
- experimental_details: NCI-60 one-dose screen, 48 h
- test_settings: 10 µM unless noted
About 83,000 compounds went through this panel and 20% of them were active in at least one assay; those are over-represented in the sample as a whole. Activity calls are given as the source filed them. Rule for the calls: active = growth percent below 10; inactive = the rest.
Pick one: active, inactive

compound	label_class
CCOC(=O)C1=C(C)N=C2Sc3cccc(OC)c3N2[C@H]1c1ccccn1	inactive
CCS(=O)(=O)N1CCN(c2ccc(Nc3ncc(C(N)=O)c(NC4CC4)n3)cc2)CC1	inactive
Cc1ccccc1Nc1nc2nonc2nc1Nc1cccc(C)c1C	inactive

Request: Status in this test for CC(=O)c1c(C)c2cnc(Nc3ccc(N4CCNCC4)cn3)nc2n(C2CCCC2)c1=O ?
Response: inactive

Request: What did the test return for CCCc1cc2cc(-n3nc(C)c4c3CC(C)(C)CC4=O)cc(NC3CCC(O)CC3)c2c(=O)[nH]1 (stereo not given) ?
Response: inactive
